# Tested on: M19-MEL melanoma
# protocolNotes: NCI tumour cell line growth inhibition, 48 h
propertyName: TGI

Consider the reported TGI for these compounds:
C=C(/C=C/C=C(\CO)CCC=C(C)C)[C@H]1CCC2([C@H](CCCO)/C(=C(/C)C=O)CC[C@]2(C)O)[C@H]1O (some centres not stated): > 100 µM
O=C(Nc1c(Cl)cc([N+](=O)[O-])cc1Cl)C(=O)C(C(=O)c1ccncc1)C1OC(=O)c2ccccc21 (configuration not stated): > 100 µM
Cc1ccccc1NC(=O)C(=O)CC(=O)c1sc(-n2nc(-c3ccccc3)cc2-c2ccccc2)nc1C: > 100 µM
CC(=O)O[C@H]1C(=O)[C@@]2(C)C([C@H](OC(=O)c3ccccc3)[C@]3(O)C[C@H](OC(=O)[C@H](O)[C@@H](NC(=O)c4ccc(Cl)cc4)c4ccccc4)C(C)=C1C3(C)C)C1(OC(C)=O)CO[C@@H]1C[C@@H]2O (some centres not stated): 14.1 µM
CCOc1ccc(N=Nc2c(-c3ccccc3)nn(C(=O)CC(=O)Nc3ccccc3Cl)c2-c2ccccc2)cc1: > 100 µM

Required: TGI, one value per compound below.
1. NC(=O)N1N=C2c3ccccc3OC[C@H]2[C@@H]1c1ccccc1
2. CN(C)CCC(/C=C/c1ccccc1)=N\Nc1c(F)c(F)c(F)c(F)c1F

> 100 µM
> 100 µM

###

Assignment: determine reported log10 TGI for the given molecules.
# System: ACHN renal
# protocolNotes: NCI tumour cell line growth inhibition, 48 h
A difference of one corresponds to tenfold TGI; all values are log10 with TGI in µM.

Consider the reported log10 TGI for these molecules:
Clc1cc(Cl)cc(Nc2ccc3c(OCCCN4CCOCC4)cccc3n2)c1: 1.01
Clc1ccc(C2=CC(c3ccccc3)N3C(=N[C@H]4CCCC[C@@H]43)N2)cc1 (stereo not given in full): 1.25
CC1(C)N=C(N)N=C(N)N1c1ccc(CCCCCCc2ccc(S(=O)(=O)F)cc2)cc1: 1.16

Required: log10 TGI, one value per molecule below.
1. Cc1c(-c2ccccc2)oc(=O)c2ccccc12
2. c1ccc2c(c1)ccc1cc3cc(NCCCCNc4ccc5nc6c(ccc7ccccc76)cc5c4)ccc3nc12
3. COc1cc(-c2cc(OC)c(OC)c3ccc(Br)cc23)c2cc(Br)ccc2c1OC
4. OCCN1CCCN(CCCN2c3ccccc3Sc3ccc(C(F)(F)F)cc32)CC1

1. 1.99
2. 0.43
3. 1.71
4. 1.13

Required: log10 TGI, one value per molecule below.
1. COc1cc(-c2ccc[nH]2)[nH]c1/C=C1\N=C(C)C(C(=O)NC(C)C)=C1C
2. Cc1ncc([N+](=O)[O-])n1CCOc1ccc(C(=O)/C=C/c2ccc(C(F)(F)F)cc2)cc1

[1.12, 0.96]

###

# Tested on: HOP-62 NSCLC
# protocolNotes: NCI tumour cell line growth inhibition, 48 h
Assignment: determine reported TGI for the given molecules.

Consider the reported TGI for these molecules:
C=C(CCC(=O)N(CCc1c[nH]c2ccccc12)C(=O)c1ccccc1CSCC)C(=O)OC: > 100 µM
O=c1[nH]c2ccccc2c(=O)n1/N=C\c1ccccc1O: > 100 µM
N#Cc1nc(-c2ccsc2)oc1N: > 100 µM
COc1ccc(-c2nc3sccn3c2/C=C/C(=O)c2cc(OC)c(OC)c(OC)c2)cc1: > 25.7 µM
Cc1cc(C)nc(NS(=O)(=O)c2ccc(NC(=O)c3ccc4nc5ccccc5c(Nc5ccc(S(=O)(=O)N=C(N)N)cc5)c4c3)cc2)n1: > 100 µM
O=[N+]([O-])/C(=C/C=C/c1ccccc1)c1ccccc1: 21.4 µM
CNc1ccc(CSc2ccc(C)cc2)cc1: > 100 µM
CN(Cc1cnc2nc(N)nc(N)c2n1)c1c(Cl)cc(C(=O)NC(CCC(=O)O)C(=O)O)cc1Br (stereo unspecified): > 100 µM
CN=C1C=C(/N=C2/C=C(N/C(=C\C#N)C(C)(C)O)OC2(C)C)OC1(C)C: > 100 µM
CC[P+](c1ccccc1)(N(C)C)N(C)C: > 100 µM

Next item in the queue.
The recorded TGI for `CN(C)CN(C)c1nc(N(C)C)nc(N(C)C)n1` is > 100 µM

###

# System: PC-3 prostate
# protocolNotes: NCI tumour cell line growth inhibition, 48 h
Where a SMILES comes first, the peptide text is derived from it. The star is where a group is joined. Fmoc = O=C(OCC1c2ccccc2-c2ccccc21)*; OBn = c1ccc(CO*)cc1; tBu = CC(C)(C)*
Assignment: determine reported TGI for the given compounds.

Consider the reported TGI for these compounds:
COc1ccccc1-c1cc(=O)c2cccnc2[nH]1: > 100 µM
Nc1c(-c2ccccc2)c2ccc([N+](=O)[O-])cc2c(=O)n1-c1cccc(C(=O)O)c1: > 100 µM
O=c1[nH]c(NCCCCCO)nc2nc[nH]c12: > 100 µM
Cc1cc(C)n(C(C)(C(=O)Cc2ccccc2)n2nc(C)cc2C)n1: > 100 µM
COC(=O)c1c2c(cc3c1CC1(Cc4cc5c(cc4C1)CCCC5)C3)CCCC2: > 100 µM
O=[N+]([O-])/C=C/c1cn(CCCCCCCCn2cc(/C=C/[N+](=O)[O-])c3ccccc32)c2ccccc12: > 10 µM

Required: TGI, one value per compound below.
1. Cc1c(-c2ccccc2)oc(=O)c2ccccc12
2. Clc1cc(Cl)cc(Nc2ccc3c(OCCCN4CCOCC4)cccc3n2)c1
3. CCOC(=O)CC1C(C(=O)OCC)=Cn2c([nH]c3cccc4cccc2c43)=C1C(=O)OCC (centres undefined)
4. CC(C)(C)[C@H]1NC(=O)CN1C(=O)OCc1ccccc1
5. COc1cc(C2C3=C(NC(=O)C2C#N)c2ccc4ccccc4c2OCC3)cc(OC)c1OC (centres undefined)

1. 72.1 µM
2. 4.69 µM
3. > 100 µM
4. > 100 µM
5. > 100 µM

Required: TGI, one value per compound below.
1. CCOC(=O)/C(=C/c1cn(C(C)=O)c2ccccc12)P(=O)(OC)OC
2. COc1ccc(-c2nn(-c3cccc(Cl)c3)cc2-c2c(C#N)c(=O)n3[nH]c(-c4ccc(C)o4)nc3c2C#N)cc1
3. C[C@]12CC[C@H]3[C@@H](CCC4=C/C(=N/OCCN5CCCCC5)CC[C@@]43C)[C@@H]1CC[C@@H]2O
4. CC(OC(C)(C)C)C(NC(=O)OCC1c2ccccc2-c2ccccc21)C(=O)NC(Cc1ccccc1)C(=O)OCc1ccccc1 (centres undefined) (Fmoc-Thr(tBu)-Phe-OBn; configuration not given here)

["> 100 µM", "> 50 µM", "45.6 µM", "> 100 µM"]

Required: TGI, one value per compound below.
1. O=C(Nc1nnc(-c2ccccc2)o1)C(SC(=S)N1CCCC1)c1ccccc1 (centres undefined)
2. Cc1nc(Nc2ccc(Cl)c(Cl)c2)sc1C(/C=C/c1ccc2c(c1)OCO2)=N/Nc1ccc([N+](=O)[O-])cc1[N+](=O)[O-]
3. O=C(CCCCCCCCC(=O)N1C(=O)CC(=O)N(c2ccc(Cl)cc2)C1=S)N1C(=O)CC(=O)N(c2ccc(Cl)cc2)C1=S

1: > 100 µM; 2: > 100 µM; 3: > 100 µM

The recorded TGI for COc1cc2ccc(C(C)NCC#N)cc2cc1OC (centres undefined) is > 100 µM

###

# Tested on: IGROV1 ovarian
# protocolNotes: NCI tumour cell line growth inhibition, 48 h; in the data active = GI50 below about 0.43 µM; inactive = the rest
Log the outcome using a class from active, inactive

Use these answered entries as a reference point.
CC[C@]1(O)C[C@@H]2CN(CCc3c([nH]c4ccccc34)[C@@](C(=O)OC)(c3cc4c(cc3OC)N(C)[C@H]3[C@@](O)(C(=O)OC)[C@H](OC(=O)CCCBr)[C@]5(CC)C=CCN6CC[C@]43[C@@H]65)C2)C1: active
CN(Cc1cnc2nc(N)nc(N)c2n1)c1c(Cl)cc(C(=O)NC(CCC(=O)O)C(=O)O)cc1Br (stereo not drawn): active
C=C(c1ccc(C(=O)NCCCn2ccnc2)cc1)c1cc2c(cc1C)C(C)(C)CCC2(C)C: inactive
COc1ccc2c(c1)CCC1C2CCC2(C)C(NC(=O)CCCCC3CCSS3)CCC12 (stereo not drawn): inactive
COc1cc(C(=O)/C=C/c2c(C)n([O-])c3ccc(Cl)cc3[n+]2=O)cc(OC)c1OC: inactive
OCCN1CCCN(CCCN2c3ccccc3Sc3ccc(C(F)(F)F)cc32)CC1: inactive

Check the results log: what was the call for `COc1ccc([C@H]2c3[nH]c4ccccc4c3C[C@H]3C(=O)N(CCCCCCC(=O)NO)CC(=O)N23)cc1` ?
inactive

Check the results log: what was the call for `O=C(Nc1ccc(-n2cc(-c3ccncc3)c(-c3ccc(Cl)c(O)c3)n2)cc1)c1ccc(Cl)c(Cl)c1` ?
inactive

###

# Tested on: A498 renal
# protocolNotes: NCI tumour cell line growth inhibition, 48 h
propertyName: TGI

Consider the reported TGI for these compounds:
N=C(N)c1ccc(N=Nc2c(O)c(C(=O)Nc3ccccc3)cc3ccccc23)cc1: > 100 µM
COC(=O)c1c2c(cc3c1CC1(Cc4cc5c(cc4C1)CCCC5)C3)CCCC2: > 100 µM
CNC1CC(n2cc(C)c(=O)[nH]c2=O)OC1CO (configuration not stated): > 100 µM
COc1cc2c(cc1OC)C(Sc1ccc(Cl)cc1)c1c(nc(N)c(C#N)c1N)O2 (configuration not stated): 5.01 µM
COc1ccc(S(=O)(=O)NNS(C)(=O)=O)cc1OC: > 100 µM
Cc1nc2sc(C(=O)Nc3cccc(Cl)c3)c(N)c2cc1C(O)c1ccccc1 (configuration not stated): 0.815 µM
COC1=C(OC)C(=O)C(Cc2c(-c3ccccc3)nc3sc(Cl)cn23)=C(C)C1=O: 47.2 µM
CCOC(=O)CC1(N)CC2c3ccccc3OC(=O)C2C(=O)N1 (configuration not stated): > 100 µM

Required: TGI, one value per compound below.
1. COc1cc(/C=C/C(=O)/C=C/c2ccc(-n3ccnc3)cc2)ccc1O
2. O=c1[nH]c2ccccc2c(=O)n1/N=C\c1ccccc1O
3. Cc1cc(C)n(C(=CC(=O)C(Cl)Cl)n2nc(C)cc2C)n1
4. COc1cc(C(=O)Nc2ccc(-c3nc4ccccc4[nH]3)cc2)cc(OC)c1OC
5. O=C(/C=N/O)Nc1cccc(Cl)c1I
6. CCOC(=O)/C=C(/OCC)[C@@H]1C(C(=O)c2ccc(Cl)cc2)[C@@H]1/C(=C\C(=O)OCC)OCC (some centres not stated)

1: 19.9 µM; 2: > 100 µM; 3: > 100 µM; 4: 25.4 µM; 5: > 100 µM; 6: > 100 µM

Required: TGI, one value per compound below.
1. Clc1ccc(/C=C/c2csnn2)cc1
2. COc1cc(OC)c(OC)cc1/C=C\c1ccnc2ccccc12

1. > 100 µM
2. 5.64 µM

Required: TGI, one value per compound below.
1. Nc1c(-c2ccccc2)c2ccc([N+](=O)[O-])cc2c(=O)n1-c1cccc(C(=O)O)c1
2. CN(CC(=O)O)c1ncc2c(n1)-c1ccccc1CC2
3. COc1cc(C(=O)/C=C/c2c(C)n([O-])c3ccc(Cl)cc3[n+]2=O)cc(OC)c1OC
4. COc1ccc(C2CC(c3cccc(Nc4ccncc4)c3)=NN2c2ccccc2)cc1 (configuration not stated)
5. O=C(O)c1cc2ccc(Cl)cc2c(O)c1C1=CCCCC1
6. CC(=O)CCN1CC2CN=NC2(C#N)C1 (configuration not stated)
7. COc1cc(/C=C2\C(=O)N(c3ccc(Cl)cc3)C(c3ccccc3)S2(=O)=O)cc(OC)c1OC (configuration not stated)
8. COc1cc2c(cc1OC)C(C1CC1)ON(C)CC2 (configuration not stated)

1: > 100 µM; 2: > 100 µM; 3: 41 µM; 4: 9.69 µM; 5: 79.1 µM; 6: > 100 µM; 7: > 100 µM; 8: > 100 µM

Required: TGI, one value per compound below.
1. C[N+](C)([O-])C12CC3CC(CC(C3)C1)C2
2. CC(C)(C)OC(=O)N1CCC2(CC1)C(=O)NCN2c1ccccc1
3. Nc1ccc2c3c1cccc3c(=O)n1c3ccc(Cc4ccc5c(c4)nc4c6ccc(N)c7cccc(c(=O)n54)c76)cc3nc21
4. COc1ccc(C2NC(c3ccc(OC)cc3)C(C)C(=O)C2C)cc1 (configuration not stated)
5. O=C(/C=C/c1ccccn1)c1ccccc1

1: 67.7 µM; 2: > 100 µM; 3: > 100 µM; 4: > 100 µM; 5: 28.3 µM
